These entries and their values trace back to patent US6737383B1.

Test system: sugar beet
Experiment: Test B pre/postemergence sugar beet
Format: in vivo, Beta vulgaris
Details: Postemergence, Rate 500 g/ha; scale of 0 to 10 where 0 is no effect and 10 is complete control
measured parameter: Plant response rating, Sugarbeets
Answer using only a numeral; do not append any unit.

For the compound CC(C)N(C(=O)n1oc(=O)n(CC[N+](=O)[O-])c1=O)c1ccc(F)cc1F , give its measured Plant response rating, Sugarbeets value.
0

----------
Tested on: cocklebur
Assay: Test B pre/postemergence cocklebur
Format: in vivo, Xanthium strumarium
Settings: Rate 500 g/ha, Postemergence; scale 0 to 10, 0 is no effect, 10 is complete control
measured parameter: Cocklebur plant response rating

> print(dat)
                                   compound               measured.parameter  result
1  C#CC(C)n1c(=O)on(C(=O)N(c2ccc(F)cc2F)C(C)C)c1=O (racemic) [Compound 657]  Cocklebur plant response rating       5
2  CC(C)N(C(=O)n1oc(=O)n(CC(F)F)c1=O)c1ccc(F)cc1 [Compound 710]  Cocklebur plant response rating       0

For the compound CC[C@H](C)n1c(=O)on(C(=O)N(c2ccc(Cl)cc2)C(C)C)c1=O [Compound 664] , give its measured Cocklebur plant response rating value.
6

For the compound CC(C)N(C(=O)n1oc(=O)n(CCCCl)c1=O)c1ccc(Cl)cc1 [Compound 749] , give its measured Cocklebur plant response rating value.
4

For the compound CC(C)N(C(=O)n1oc(=O)n(C[C@H](C)Cl)c1=O)c1ccccc1 [Compound 747] , give its measured Cocklebur plant response rating value.
4

----------
Test system: cocklebur
Assay: Test B pre/postemergence cocklebur
Format: in vivo, Xanthium strumarium
Conditions: Preemergence, Rate 500 g/ha; scale of 0 to 10 where 0 is no effect and 10 is complete control
Consider the following compounds and their measured Plant response rating, Cocklebur readings.
Answer using only a numeral; do not append any unit.

> print(dat)
                                   compound                measured.parameter  numeric.result
1  CC(C)N(C(=O)n1oc(=O)n(C(C)C=O)c1=O)c1ccccc1 (centres unmarked)  Plant response rating, Cocklebur               0

For the compound Cc1nc(C)c(Cn2c(=O)on(C(=O)N(c3ccc(F)cc3)C(C)C)c2=O)s1 , give its measured Plant response rating, Cocklebur value.
0

For the compound CC(C)N(C(=O)n1oc(=O)n(N(C)C)c1=O)c1ccccc1 , give its measured Plant response rating, Cocklebur value.
2

For the compound C=C(C)Cn1c(=O)on(C(=O)N(c2ccccc2)C(C)C)c1=O , give its measured Plant response rating, Cocklebur value.
0

For the compound CC(C)N(C(=O)n1oc(=O)n(CC[N+](=O)[O-])c1=O)c1ccc(F)cc1F , give its measured Plant response rating, Cocklebur value.
0

----------
Test system: morningglory
Test: Test B pre/postemergence morningglory
Format: in vivo, Ipomoea hederacea
Settings: Rate 500 g/ha, Postemergence; scale 0 to 10, 0 no effect, 10 complete control
measured parameter: Plant response rating, Morningglory

Some solved entries appear below for comparison.
> print(dat)
                                   compound                   measured.parameter  result
1  CC(C)N(C(=O)n1oc(=O)n(CCl)c1=O)c1ccc(F)cc1  Plant response rating, Morningglory       0
2  CC1CC1n1c(=O)on(C(=O)N(c2ccc(Cl)cc2)C(C)C)c1=O (centres unmarked)  Plant response rating, Morningglory      10
3  CC(C)C(C)n1c(=O)on(C(=O)N(c2ccccc2)C(C)C)c1=O (centres unmarked)  Plant response rating, Morningglory       8
4  CC(C)N(C(=O)n1oc(=O)n(-c2ccc3ccccc3c2)c1=O)c1ccc(F)cc1  Plant response rating, Morningglory       0

Shift focus to the following entry.
For the compound Cc1nnsc1Cn1c(=O)on(C(=O)N(c2ccccc2)C(C)C)c1=O , give its measured Plant response rating, Morningglory value.
10

----------
Tested on: morningglory
Assay: Test B pre/postemergence morningglory
Format: in vivo, Ipomoea hederacea
Conditions: Preemergence, Rate 125 g/ha; scale of 0 to 10 where 0 is no effect and 10 is complete control
Consider the following compounds and their measured Morningglory plant response rating readings.

Some solved entries appear below for comparison.
> print(dat)
                                   compound                  measured.parameter  result
1  CC(C)N(C(=O)n1oc(=O)n(CC2CCCCO2)c1=O)c1ccc(Cl)cc1 (centres unmarked)  Morningglory plant response rating       0
2  CC(C)N(C(=O)n1oc(=O)n(CC[N+](=O)[O-])c1=O)c1ccc(F)cc1F  Morningglory plant response rating       0
3  CCC(C)n1c(=O)on(C(=O)N(c2ccccc2)C(C)C)c1=O (centres unmarked)  Morningglory plant response rating       3
4  CC(C)N(C(=O)n1oc(=O)n(CCCC(F)(F)F)c1=O)c1ccccc1  Morningglory plant response rating       0
5  C#CC=CC(C)(C)n1c(=O)on(C(=O)N(c2ccccc2)C(C)C)c1=O  Morningglory plant response rating       0

For the compound C#CC(C)n1c(=O)on(C(=O)N(c2ccc(F)cc2F)C(C)C)c1=O (racemic) , give its measured Morningglory plant response rating value.
1

For the compound CC(C)N(C(=O)n1oc(=O)n(CC2CCC2)c1=O)c1ccccc1 , give its measured Morningglory plant response rating value.
0

For the compound C=C(Cc1ccccc1)Cn1c(=O)on(C(=O)N(c2ccccc2)C(C)C)c1=O , give its measured Morningglory plant response rating value.
0

----------
System: cocklebur
Assay: Test B pre/postemergence cocklebur
Format: in vivo, Xanthium strumarium
Conditions: Preemergence, Rate 62 g/ha; scale of 0 to 10 where 0 is no effect and 10 is complete control
Consider the following compounds and their measured Plant response rating, Cocklebur readings.
Answer using only a numeral; do not append any unit.

Some solved entries appear below for comparison.
> print(dat)
                                   compound                measured.parameter  numeric.result
1  COC(=O)CCCn1c(=O)on(C(=O)N(c2ccc(F)cc2F)C(C)C)c1=O  Plant response rating, Cocklebur               0
2  CC(C)N(C(=O)n1oc(=O)n(CCCl)c1=O)c1ccccc1  Plant response rating, Cocklebur               0

Enter recorded Plant response rating, Cocklebur with cocklebur for CC(C)N(C(=O)n1oc(=O)n(C(C)C(=O)c2ccccc2)c1=O)c1ccc(F)cc1F (stereo not drawn) here.
0

----------
System: giant foxtail
Assay: Test B pre/postemergence giant foxtail
Format: in vivo, Setaria faberii
Conditions: Preemergence, Rate 500 g/ha; scale 0 to 10, 0 is no effect, 10 is complete control
measured parameter: Giant foxtail plant response rating
Answer using only a numeral; do not append any unit.

For the compound CC(C)N(C(=O)n1oc(=O)n(CCl)c1=O)c1ccccc1 , give its measured Giant foxtail plant response rating value.
4

For the compound CC(C)N(C(=O)n1oc(=O)n(CC(=O)C2CC2)c1=O)c1ccc(F)cc1F , give its measured Giant foxtail plant response rating value.
10

For the compound CC(C)N(C(=O)n1oc(=O)n(CO)c1=O)c1ccc(F)cc1 , give its measured Giant foxtail plant response rating value.
3

For the compound CC(C)N(C(=O)n1oc(=O)n(CC(=O)C2CC2)c1=O)c1ccccc1 , give its measured Giant foxtail plant response rating value.
10

For the compound CC(C)N(C(=O)n1oc(=O)n(CCCl)c1=O)c1ccccc1 , give its measured Giant foxtail plant response rating value.
10

----------
Consider the following molecules and their measured Rape plant response rating (0 to 10 scale) readings.
Tested on: rape
Assay: Test B pre/postemergence rape
Type: in vivo, Brassica napus
Conditions: Preemergence, Rate 125 g/ha
Answer using only a numeral; do not append any unit.

Some solved entries appear below for comparison.
> print(dat)
                                   molecule  numeric.result
1  CC(C)C(C)n1c(=O)on(C(=O)N(c2ccccc2)C(C)C)c1=O (stereo not shown) [Compound 355]               0
2  COC(Cn1c(=O)on(C(=O)N(c2ccc(F)cc2)C(C)C)c1=O)OC [Compound 317]               2

For the molecule CC(C)N(C(=O)n1oc(=O)n(N2C(C)CCCC2C)c1=O)c1ccc(F)cc1 (stereo not shown) [Compound 382] , give its measured Rape plant response rating (0 to 10 scale) value.
0

For the molecule Cc1ccc(N(C(=O)n2oc(=O)n(-c3ccc4ccccc4c3)c2=O)C(C)C)cc1 [Compound 334] , give its measured Rape plant response rating (0 to 10 scale) value.
0

----------
Tested on: corn
Assay: Test B pre/postemergence corn
Type: in vivo, Zea mays
Settings: Preemergence, Rate 125 g/ha; scale 0 to 10 (0 no effect, 10 complete control)
measured parameter: Plant response rating, Corn
Answer using only a numeral; do not append any unit.

Some solved entries appear below for comparison.
> print(dat)
                               smiles.entry  tested.on           measured.parameter  numeric.result
1  Cc1cc(C)c(-n2c(=O)on(C(=O)N(c3ccc(F)cc3)C(C)C)c2=O)c(C)c1       corn  Plant response rating, Corn               0
2  CC(C)N(C(=O)n1oc(=O)n(C(C)(C)C)c1=O)c1ccc(Cl)cc1       corn  Plant response rating, Corn               0
3  Cc1c(Cl)cccc1-n1c(=O)on(C(=O)N(c2ccc(F)cc2)C(C)C)c1=O       corn  Plant response rating, Corn               0

Shift focus to the following entry.
For the compound CCn1c(=O)on(C(=O)N(c2ccccc2)C(C)C)c1=O , give its measured Plant response rating, Corn value.
2
